Below, each entry is listed with its recorded melting point.

Solved cases below.
CCCCn1c(=O)c([N+](=O)[O-])c(NC)c2ccccc21: 225 to 227 °C
O=C(Nc1nccs1)c1nc(-c2ccc(N3CCOCC3)cc2)[nH]c1-c1ccc(Cl)cc1: > 260 °C
CSc1nn2c(N3CCNCC3)cc(C(C)(C)C)nc2c1S(=O)(=O)c1ccccc1: 236 to 237 °C
Clc1ccc2c(C=Cc3ccccc3)ccnc2c1: 120 to 122 °C
N=C(NO)c1ccc2c(c1)COC(N[C@@H]1CCc3ccccc31)=N2: 206 °C
CC(C)(C)c1csc(-c2nc(Cl)c(Cl)[nH]2)n1: 157 to 158 °C
N/C(=C1/Sc2ccc(Cl)cc2C1=O)c1ccccc1Cl: 199 to 201 °C
CC(=O)N1CCN(c2cccc(F)n2)CC1: 102 to 103 °C

Please look up its melting point: `COc1ccc(-c2nnc3c4ccccc4c(Nc4ccc(-c5nn[nH]n5)cc4)nn23)cc1`
281 to 284 °C

Suppose we examine the compound `O=C(O)c1cc(N2CCCCC2)ccc1[N+](=O)[O-]` ; what melting point value has been reported?
130 to 140 °C

Entry under review: `COc1ccc(C(=O)c2ccc(Cl)cc2Cl)cc1Cl` . Reported melting point?
98 °C
